Assay: self-splicing fitness, log relative to wild type (ln ratio); higher = more splicing; Tetrahymena group I intron in knt gene, E. coli kanamycin selection, DiMSum; sequences stand for … in CUCUCU…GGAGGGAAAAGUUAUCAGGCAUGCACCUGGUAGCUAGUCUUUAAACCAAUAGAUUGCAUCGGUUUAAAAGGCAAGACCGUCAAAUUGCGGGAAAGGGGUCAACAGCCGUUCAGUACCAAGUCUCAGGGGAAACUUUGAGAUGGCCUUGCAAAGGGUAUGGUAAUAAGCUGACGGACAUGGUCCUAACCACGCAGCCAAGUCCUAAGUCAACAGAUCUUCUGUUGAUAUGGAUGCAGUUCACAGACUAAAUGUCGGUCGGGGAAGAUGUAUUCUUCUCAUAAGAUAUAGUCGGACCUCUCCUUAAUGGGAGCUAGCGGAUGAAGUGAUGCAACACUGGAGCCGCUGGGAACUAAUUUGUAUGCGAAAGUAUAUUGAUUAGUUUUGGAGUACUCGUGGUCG;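 note: selection with 25 µg/mL kanamycin versus none on LB agar overnight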
Details: 37 °C
Grouping by measured self-splicing fitness (ln) is done with the following cut points: bucket 1 (below -2), bucket 2 (-2 to below -1), bucket 3 (-1 or more)

Known results for sequences:
>>> label_value("AUUUAGCAAUAUUACGUACG")
"bucket 2"
>>> label_value("UUUCAGCAAUAUUACGACGU")
"bucket 3"
>>> label_value("CGGAAGCAAUAUUACGGGUA")
"bucket 1"
>>> label_value("ACCUAGCAAUAUUACGGAUA")
"bucket 2"
>>> label_value("AACAAGCAAUAUUACGGGUA")
"bucket 3"

# input Sort GAUCAGCAAUAUUACGUGUU into one of the categories.
# output bucket 2

# input Another sequence: UUACAGCAAUAUUACGAUCG
# output bucket 3

# input Another sequence: GCACAGCAAUAUUACGGGUG
# output bucket 1

# input Another sequence: AUGCAGCAAUAUUACGGCCG
# output bucket 2

# input Another sequence: GGGUAGCAAUAUUACGCGAA
# output bucket 3

# input Another sequence: AUCGAGCAAUAUUACGAUAG
# output bucket 1

# input Another sequence: GAAUAGCAAUAUUACGCCAU
# output bucket 2

# input Another sequence: AACUAGCAAUAUUACGUUUU
# output bucket 2
